Data credit: ChEMBL document CHEMBL4017507

- Test system: CCRF-CEM
- test.description: Cytostatic activity human CEM cells assessed as reduction in cell viability after 72 hrs by cell counting method
- Assay type: cell-based
- conditions.used: ccrf-cem, 72 h
Catalogue of compounds with associated CC50
API: value field is a number in µM; no unit string.

For reference, reported CC50 for `Nc1nc(Cl)c2ncn(CCC(CO)CO)c2n1` stands at 400

Reported CC50 ( C[C@H](NP(=O)(OCC(CCn1cnc2c(=O)[nH]c(/N=C/N(C)C)nc21)COP(=O)(N[C@@H](C)C(=O)OCc1ccccc1)Oc1ccccc1)Oc1ccccc1)C(=O)OCc1ccccc1 (some centres undefined) ) = 21

Lab note: measured CC50 of COc1nc(N)nc2c1ncn2CCC(COP(=O)(N[C@@H](C)C(=O)OCc1ccccc1)Oc1ccccc1)COP(=O)(N[C@@H](C)C(=O)OCc1ccccc1)Oc1ccccc1 (some centres undefined) was 19

So for C[C@H](NP(=O)(OCC(COP(=O)(N[C@@H](C)C(=O)OCc1ccccc1)Oc1ccccc1)SCn1cnc2c(=O)[nH]c(N)nc21)Oc1ccccc1)C(=O)OCc1ccccc1 (some centres undefined) , the logged CC50 turned out to be 77

Reported CC50 of COc1nc(N)nc2c1ncn2CCC(CO)COP(=O)(N[C@@H](C)C(=O)OCc1ccccc1)Oc1cccc2ccccc12 (some centres undefined) : 27

Continuing:
Short answer for `COc1nc(N)nc2c1ncn2CCC(CO)CO` : CC50 was 246

The compound identified as COc1nc(N)nc2c1ncn2CCC(CO)COP(=O)(N[C@@H](C)C(=O)OCc1ccccc1)Oc1ccccc1 (some centres undefined) registered its CC50 at 32

// field: CC50; key: CC(C)(NP(=O)(OCC(COP(=O)(NC(C)(C)C(=O)OCc1ccccc1)Oc1ccccc1)OCn1cnc2c(=O)[nH]c(N)nc21)Oc1ccccc1)C(=O)OCc1ccccc1 (centres undefined) ; value = 47

====

- System: Human immunodeficiency virus 1
- test.description: Antiviral activity against HIV1 X4LAI.04 infected in human tonsillar tissues assessed as inhibition of virus-induced cytopathic effect by p24gag-based luminex assay
- Format: functional
- conditions.used: Human immunodeficiency virus 1, X4LAI.04
Quick list: EC50 per entry.
Dear colleague, please return just the value in µM, with no unit written.

Examples with answers:
Reported EC50 for C[C@H](NP1(=O)OCC(OCn2cnc3c(Cl)nc(N)nc32)CO1)C(=O)OCc1ccccc1 (stereo not given in full) was 9

Data point: C[C@H](NP(=O)(OCC(CO)OCn1cnc2c(=O)[nH]c(N)nc21)Oc1cccc2ccccc12)C(=O)OCc1ccccc1 (stereo not given in full) ; EC50 = 11

Next:
Lab note: measured EC50 of Nc1nc(O)c2ncn(COC(CO)CO)c2n1 [GANCICLOVIR] was 5

====

- test.description: Cytostatic activity human CEM cells assessed as reduction in cell viability after 72 hrs by cell counting method
- Format: cell-based, CCRF-CEM
- conditions.used: CEM cells (CCRF-CEM)
measured.property: CC50 at 72 h

Form field CC50 at 72 h, entry `Nc1nc(O)c2ncn(COC(CO)CO)c2n1` : > 100 µM

====

- test.description: Cytotoxicity against human HEL cells assessed as alteration to cell morphology by microscopic analysis
- Format: cell-based
Listing of entries alongside the reported MCC.

Solved cases below.
The recorded MCC for C[C@H](NP(=O)(OCC(COP(=O)(N[C@@H](C)C(=O)OCc1ccccc1)Oc1cccc2ccccc12)SCn1cnc2c(=O)[nH]c(/N=C/N(C)C)nc21)Oc1cccc2ccccc12)C(=O)OCc1ccccc1 (some centres undefined) is 50 to 100 µM

Measured MCC of C[C@H](NP(=O)(OCC(CCn1cnc2c(=O)[nH]c(/N=C/N(C)C)nc21)COP(=O)(N[C@@H](C)C(=O)OCc1ccccc1)Oc1ccccc1)Oc1ccccc1)C(=O)OCc1ccccc1 (some centres undefined) : 50 to 100 µM

The value of MCC measured for the compound CCCOC(=O)[C@H](C)NP(=O)(OCC(CO)CCn1cnc2c(OC)nc(N)nc21)Oc1cccc2ccccc12 (some centres undefined) turned out to be 50 to 100 µM

Others:
Record CCC(C)(C)COC(=O)[C@H](C)NP(=O)(OCC(CO)CCn1cnc2c(OC)nc(N)nc21)Oc1cccc2ccccc12 (some centres undefined) , field MCC: 50 to 100 µM

Reported MCC ( `Nc1nc(O)c2ncn(CSC(CO)CO)c2n1` ) = 50 to 100 µM

====

- System: Human alphaherpesvirus 2
- test.description: Antiviral activity against Herpes simplex virus 2 G infected in human HEL cells assessed as inhibition of virus-induced cytopathic effect
- Assay type: functional, cell-based
- conditions.used: Human alphaherpesvirus 2, strain G
measured.property: pEC50
Notebook: values listed as pEC50 are -log10 of the concentration (mol/L).

The following molecules have reported results that may help.
pEC50 reported for this molecule C[C@H](NP(=O)(OCC(CO)OCn1cnc2c(=O)[nH]c(N)nc21)Oc1ccccc1)C(=O)OCc1ccccc1 (some centres not stated) : 5.52

molecule COc1nc(N)nc2c1ncn2CCC(CO)COP(=O)(N[C@@H](C)C(=O)OCc1ccccc1)Oc1ccccc1 (some centres not stated) , pEC50 observed: 4.54

// moving on: another record for pEC50
Data point: CC(C)OC(=O)[C@H](C)NP(=O)(OCC(COP(=O)(N[C@@H](C)C(=O)OC(C)C)Oc1cccc2ccccc12)OCn1cnc2c(=O)[nH]c(N)nc21)Oc1cccc2ccccc12 (some centres not stated) ; pEC50 = 5.85

====

- test.description: Selectivity index, ratio of IC50 for human MT4 cells to EC50 for HIV1 X4LAI.04
- Format: toxicity
- conditions.used: read-out: Ratio IC50/EC50
measured.property: selectivity ratio
// response body must contain only the number

Per the records, this compound ( COc1nc(N)nc2c1ncn2CCC(CO)COP(=O)(N[C@@H](C)C(=O)OCc1ccccc1)Oc1ccccc1 (stereo partly specified) ) has selectivity ratio equal to 2.1

====

- test.description: Cytotoxicity against human HEL cells assessed as alteration to cell morphology by microscopic analysis
- Format: cell-based
// MCC lookup, one value per entry

Please review the entries below; each comes with its answer.
GET /value?item= COc1nc(N)nc2c1ncn2CCC(COP(=O)(N[C@@H](C)C(=O)OCC(C)(C)C)Oc1cccc2ccccc12)COP(=O)(N[C@@H](C)C(=O)OCC(C)(C)C)Oc1cccc2ccccc12 (stereo not given in full) &field=MCC returns 20 to 100 µM

For record `COc1nc(N)nc2c1ncn2CCC(CO)CO` the listed MCC is 50 to 100 µM

Continuing:
Lab book: MCC of C[C@H](NP(=O)(OCC(CCn1cnc2c(=O)[nH]c(/N=C/N(C)C)nc21)COP(=O)(N[C@@H](C)C(=O)OCc1ccccc1)Oc1cccc2ccccc12)Oc1cccc2ccccc12)C(=O)OCc1ccccc1 (stereo not given in full) noted as 50 to 100 µM

MCC in this record for C[C@H](NP(=O)(OCC(CCn1cnc2c(=O)[nH]c(N)nc21)COP(=O)(N[C@@H](C)C(=O)OCc1ccccc1)Oc1cccc2ccccc12)Oc1cccc2ccccc12)C(=O)OCc1ccccc1 (stereo not given in full) : 50 to 100 µM

MCC recorded for this compound, CC(C)(NP(=O)(OCC(CCn1cnc2c(=O)[nH]c(N)nc21)COP(=O)(NC(C)(C)C(=O)OCc1ccccc1)Oc1ccccc1)Oc1ccccc1)C(=O)OCc1ccccc1 (stereo not given) , is 50 to 100 µM

====

- test.description: Cytotoxicity against human HEL cells assessed as alteration to cell morphology by microscopic analysis
- Format: cell-based
measured.property: MCC

# compound COC(=O)[C@H](C)NP(=O)(OCC(CO)CCn1cnc2c(OC)nc(N)nc21)Oc1cccc2ccccc12 (some centres not stated) ; its MCC = 50 to 100 µM

New cases:
The reported MCC of the compound CC(C)(NP(=O)(OCC(CCn1cnc2c(=O)[nH]c(N)nc21)COP(=O)(NC(C)(C)C(=O)OCc1ccccc1)Oc1cccc2ccccc12)Oc1cccc2ccccc12)C(=O)OCc1ccccc1 (configuration not stated) was 50 to 100 µM

Value of measured MCC for the entry CC(C)OC(=O)[C@H](C)NP(=O)(OCC(COP(=O)(N[C@@H](C)C(=O)OC(C)C)Oc1cccc2ccccc12)OCn1cnc2c(=O)[nH]c(N)nc21)Oc1cccc2ccccc12 (some centres not stated) : ≥ 100 µM

response.value for C[C@H](NP(=O)(OCC(CO)OCn1cnc2c(=O)[nH]c(N)nc21)Oc1cccc2ccccc12)C(=O)OCc1ccccc1 (some centres not stated) (field: MCC) = > 100 µM

====

- System: Human alphaherpesvirus 2
- test.description: Antiviral activity against Herpes simplex virus 2 G infected in human HEL cells assessed as inhibition of virus-induced cytopathic effect
- Type: functional, cell-based
- conditions.used: Human alphaherpesvirus 2, strain G
measured.property: log10(EC50) (log10 of the value in µM)
Hello, just confirming the data are log10 of EC50 with units of µM.

Below are worked cases with known answers.
The recorded log10(EC50) for CC(C)(NP(=O)(OCC(COP(=O)(NC(C)(C)C(=O)OCc1ccccc1)Oc1ccccc1)OCn1cnc2c(=O)[nH]c(N)nc21)Oc1ccccc1)C(=O)OCc1ccccc1 (configuration not stated) is 0.40

Short answer for CCC(C)(C)COC(=O)[C@H](C)NP(=O)(OCC(CO)CCn1cnc2c(OC)nc(N)nc21)Oc1cccc2ccccc12 (some centres not stated) : log10(EC50) was 1.00

Entry CC(C)(NP(=O)(OCC(CO)OCn1cnc2c(=O)[nH]c(N)nc21)Oc1ccccc1)C(=O)OCc1ccccc1 (configuration not stated) ; log10(EC50) = -0.52

The recorded log10(EC50) for Nc1nc(O)c2ncn(COC(CO)CO)c2n1 [GANCICLOVIR] is -1.40

log10(EC50) recorded for this compound, CCCOC(=O)[C@H](C)NP(=O)(OCC(CO)CCn1cnc2c(OC)nc(N)nc21)Oc1cccc2ccccc12 (some centres not stated) , is 1.18

Continuing:
The value of log10(EC50) measured for the compound CC(C)OC(=O)[C@H](C)NP(=O)(OCC(CO)OCn1cnc2c(=O)[nH]c(N)nc21)Oc1cccc2ccccc12 (some centres not stated) turned out to be 0.48

Looking up CC(C)(NP(=O)(OCC(COP(=O)(NC(C)(C)C(=O)OCc1ccccc1)Oc1cccc2ccccc12)OCn1cnc2c(=O)[nH]c(N)nc21)Oc1cccc2ccccc12)C(=O)OCc1ccccc1 (configuration not stated) , I see its log10(EC50) listed as -0.05

# log10(EC50) (compound: C[C@H](NP(=O)(OCC(COP(=O)(N[C@@H](C)C(=O)OCc1ccccc1)Oc1cccc2ccccc12)OCn1cnc2c(=O)[nH]c(N)nc21)Oc1cccc2ccccc12)C(=O)OCc1ccccc1 (some centres not stated) ) is 0.40

Measured log10(EC50) of COc1nc(N)nc2c1ncn2CCC(CO)COP(=O)(N[C@@H](C)C(=O)OCC(C)(C)C)Oc1cccc2ccccc12 (some centres not stated) : 0.95

Form: compound = CC(C)(NP(=O)(OCC(CO)CCn1cnc2c(=O)[nH]c(N)nc21)Oc1ccccc1)C(=O)OCc1ccccc1 (configuration not stated) ; log10(EC50) = 1.59

// CC(C)(NP(=O)(OCC(CO)OCn1cnc2c(=O)[nH]c(N)nc21)Oc1cccc2ccccc12)C(=O)OCc1ccccc1 (configuration not stated) : log10(EC50) value = -0.07

Given item C[C@H](NP(=O)(OCC(CO)CCn1cnc2c(=O)[nH]c(N)nc21)Oc1ccccc1)C(=O)OCc1ccccc1 (some centres not stated) , the value recorded as its log10(EC50) is 1.20

Sure, the documented log10(EC50) for CC(C)(NP(=O)(OCC(CO)CCn1cnc2c(=O)[nH]c(N)nc21)Oc1cccc2ccccc12)C(=O)OCc1ccccc1 (configuration not stated) is 1.72

// recorded log10(EC50) for `Nc1nc(O)c2ncn(CSC(CO)CO)c2n1` : -0.30

Reported log10(EC50) ( C[C@H](NP(=O)(OCC(CO)CCn1cnc2c(=O)[nH]c(N)nc21)Oc1cccc2ccccc12)C(=O)OCc1ccccc1 (some centres not stated) ) = 1.90
